# TEST PARAMETERS: in water, 310.7 K
MEASURE NAME: solubility (mole fraction)
// no unit, no text: just the number

Cc1ccc(S(=O)(=O)[O-])cc1Cl.[Na+] yielded solubility (mole fraction) of 0.00835

----------
# TEST PARAMETERS: in water, 284 K
MEASURE NAME: solubility (mole fraction)
API note: the answer field is a bare number with no unit suffix.

// solubility (mole fraction) lookup, compound = Cc1ccc(S(=O)(=O)[O-])cc1Cl.[Na+] , result: 0.00437

----------
# TEST PARAMETERS: in water, 305.6 K
MEASURE NAME: solubility (mole fraction)

Documented solubility (mole fraction) of Cc1ccc(S(=O)(=O)[O-])cc1Cl.[Na+] : 0.00733

Data provenance is BigSolDB 2.1.
